measured_target: T1, soluble human BLyS (human, UniProt Q9Y275 134-285)
T1 construct: also called hBLyS; human BAFF (BLyS)
method_notes: DELFIA competition, Eu-hBLyS binding to coated TACI
pIC50: −log10 of the molar value.
Field: pIC50. Provide a value for each of the binders that follow.

Reference set (3 entries):
binder: 5B7 IgG expressed in HEK293 cells (antibody, V domains shown, also called 5B7 (293); 5B7-HEK293) VH: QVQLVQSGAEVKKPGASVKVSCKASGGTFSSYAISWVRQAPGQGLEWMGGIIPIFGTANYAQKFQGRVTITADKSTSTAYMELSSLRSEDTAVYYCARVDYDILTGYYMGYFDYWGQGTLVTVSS VL: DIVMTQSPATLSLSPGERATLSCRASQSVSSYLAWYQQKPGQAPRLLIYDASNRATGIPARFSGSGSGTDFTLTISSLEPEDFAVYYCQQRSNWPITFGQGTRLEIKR
pIC50: > 12.52

binder: 5B7 IgG1 F243A/V264A double mutein expressed in Pichia pastoris (antibody, V domains shown, IgG1 F243A/V264A (EU) double mutein, alpha-2,6-sialylated, from glycoengineered Pichia pastoris; also called 5B7-DM; 5B7-DM Pichia) VH: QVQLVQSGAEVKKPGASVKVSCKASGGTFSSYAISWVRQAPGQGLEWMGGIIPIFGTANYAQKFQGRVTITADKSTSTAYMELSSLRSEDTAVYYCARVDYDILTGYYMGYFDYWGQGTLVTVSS VL: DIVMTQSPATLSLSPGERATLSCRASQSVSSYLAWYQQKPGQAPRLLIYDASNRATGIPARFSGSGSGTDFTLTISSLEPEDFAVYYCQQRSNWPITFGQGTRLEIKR
pIC50: 12.29

binder: 8D12 IgG expressed in HEK293 cells (antibody, V domains shown, IgG from HEK293-FreeStyle cells; also called 8D12 (293)) VH: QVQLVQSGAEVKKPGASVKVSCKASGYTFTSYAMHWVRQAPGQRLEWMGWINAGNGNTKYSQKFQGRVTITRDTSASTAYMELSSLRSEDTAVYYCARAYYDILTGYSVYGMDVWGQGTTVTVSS VL: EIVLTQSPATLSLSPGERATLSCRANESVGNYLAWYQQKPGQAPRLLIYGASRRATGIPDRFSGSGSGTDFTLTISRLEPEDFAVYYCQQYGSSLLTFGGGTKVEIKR
pIC50: > 12.52

Could you now consider this next binder?
Which value of pIC50 has been reported for 8D12 IgG1 F243A/V264A double mutein expressed in Pichia pastoris (antibody, V domains shown, IgG1 F243A/V264A (EU) double mutein, alpha-2,6-sialylated, from glycoengineered Pichia pastoris; also called 8D12-DM; 8D12-DM (Pichia)) VH: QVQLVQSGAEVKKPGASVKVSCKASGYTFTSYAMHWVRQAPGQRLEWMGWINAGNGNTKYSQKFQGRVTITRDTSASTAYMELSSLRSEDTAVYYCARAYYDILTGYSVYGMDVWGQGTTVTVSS VL: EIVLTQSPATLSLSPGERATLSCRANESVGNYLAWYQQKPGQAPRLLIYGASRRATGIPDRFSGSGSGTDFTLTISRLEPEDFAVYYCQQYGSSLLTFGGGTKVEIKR in the records?
> 12.52
